B1: tRNA (parent)
chain: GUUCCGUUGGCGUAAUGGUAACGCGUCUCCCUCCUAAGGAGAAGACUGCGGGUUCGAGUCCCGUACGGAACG

Variants of: B1
Assay: yeast fitness, log relative to wild type (ln ratio); higher = fitter; tRNA-Arg(CCU), competitive growth, 37 C, 1 M NaCl

{"sequence_content": "AGUCCGUUGGCGUAAUGGUAACGCGUUUCCCUCCUAAGGAGACGAUUGCGGGUUCGAGUCCCGUAUGGAUUG [G1A U2G C27U A43C C46U C66U A70U C71U]", "yeast fitness (ln)": -0.329}
{"sequence_content": "GUUCCAUUGGCGUAAUGGUAACGCGUUUCCCUCCUAAGGAGAAGACUGCGGGUUCGAGUCCCGUAUGGAACG [G6A C27U C66U]", "yeast fitness (ln)": -0.0352}
{"sequence_content": "GCUCCGUUGGCGUAAUGGUAACGCGUUUCCCUCCUAAGGAGAAGAUUGCGGGUUCGAGUCCCGUACGGGGUG [U2C C27U C46U A69G A70G C71U]", "yeast fitness (ln)": -0.0348}
{"sequence_content": "AGUCCUUUGGCGUAAUGGUAACGCGUUUCCCUCCUAAGGAGAAGAUUGCGGGUUCGAGUCCCGUACGGGUCG [G1A U2G G6U C27U C46U A69G A70U]", "yeast fitness (ln)": -0.314}
{"sequence_content": "GGUCCAUUGGCGUAAUGGUAACGCGUUUCCCUCCUAAGGAGACGACUGCGGGUUCGAGUCCCGUAAGGAGCG [U2G G6A C27U A43C C66A A70G]", "yeast fitness (ln)": -0.195}
{"sequence_content": "GCUCCGUUGGCGUAAUGGUAACGCGUCUCCCUCCUAAGGAGACGACUGCGGGUUCGAGUCCCGUACGGGGCG [U2C A43C A69G A70G]", "yeast fitness (ln)": -0.0256}
{"sequence_content": "GUUCCAUUGGCGUAAUGGUAACGCGUUUCCCUCCUAAGGAGAAGAUUGCGGGUUCGAGUCCCGUAAGGAGCG [G6A C27U C46U C66A A70G]", "yeast fitness (ln)": -0.218}
{"sequence_content": "ACUCCGUUGGCGUAAUGGUAACGCGUUUCCCUCCUAAGGAGAAGACUGCGGGUUCGAGUCCCGUAUGGGUUG [G1A U2C C27U C66U A69G A70U C71U]", "yeast fitness (ln)": -0.54}
{"sequence_content": "AGUCCGUUGGCGUAAUGGUAACGCGUCUCCCUCCUAAGGAGACGAUUGCGGGUUCGAGUCCCGUAAGGAGUG [G1A U2G A43C C46U C66A A70G C71U]", "yeast fitness (ln)": -0.187}
{"sequence_content": "GUUCCGUUGGCGUAAUGGUAACGCGUUUCCCUCCUAAGGAGACGAUUGCGGGUUCGAGUCCCGUAUGGGGCG [C27U A43C C46U C66U A69G A70G]", "yeast fitness (ln)": -0.211}
{"sequence_content": "GCUCCGUUGGCGUAAUGGUAACGCGUCUCCCUCCUAAGGAGACGACUGCGGGUUCGAGUCCCGUACGGAUUG [U2C A43C A70U C71U]", "yeast fitness (ln)": -0.102}
{"sequence_content": "GGUCCGUUGGCGUAAUGGUAACGCGUCUCCCUCCUAAGGAGAAGAUUGCGGGUUCGAGUCCCGUAUGGGGCG [U2G C46U C66U A69G A70G]", "yeast fitness (ln)": -0.174}
{"sequence_content": "ACUCCGUUGGCGUAAUGGUAACGCGUCUCCCUCCUAAGGAGAAGAUUGCGGGUUCGAGUCCCGUAUGGAUUG [G1A U2C C46U C66U A70U C71U]", "yeast fitness (ln)": -0.175}
{"sequence_content": "GGUCCAUUGGCGUAAUGGUAACGCGUUUCCCUCCUAAGGAGACGAUUGCGGGUUCGAGUCCCGUACGGGAUG [U2G G6A C27U A43C C46U A69G C71U]", "yeast fitness (ln)": -0.22}
{"sequence_content": "GUUCCUUUGGCGUAAUGGUAACGCGUCUCCCUCCUAAGGAGACGAUUGCGGGUUCGAGUCCCGUAAGGAUCG [G6U A43C C46U C66A A70U]", "yeast fitness (ln)": -0.113}
{"sequence_content": "GGUCCAUUGGCGUAAUGGUAACGCGUUUCCCUCCUAAGGAGAAGACUGCGGGUUCGAGUCCCGUAAGGAACG [U2G G6A C27U C66A]", "yeast fitness (ln)": -0.186}
{"sequence_content": "GUUCCGUUGGCGUAAUGGUAACGCGUCUCCCUCCUAAGGAGACGACUGCGGGUUCGAGUCCCGUACGGAUUG [A43C A70U C71U]", "yeast fitness (ln)": -0.0836}
{"sequence_content": "GUUCCAUUGGCGUAAUGGUAACGCGUUUCCCUCCUAAGGAGACGACUGCGGGUUCGAGUCCCGUAUGGGUUG [G6A C27U A43C C66U A69G A70U C71U]", "yeast fitness (ln)": -0.529}
{"sequence_content": "AUUCCUUUGGCGUAAUGGUAACGCGUUUCCCUCCUAAGGAGAAGACUGCGGGUUCGAGUCCCGUAAGGAGUG [G1A G6U C27U C66A A70G C71U]", "yeast fitness (ln)": -0.531}
{"sequence_content": "AGUCCUUUGGCGUAAUGGUAACGCGUUUCCCUCCUAAGGAGACGACUGCGGGUUCGAGUCCCGUACGGGGUG [G1A U2G G6U C27U A43C A69G A70G C71U]", "yeast fitness (ln)": -0.449}
{"sequence_content": "GUUCCAUUGGCGUAAUGGUAACGCGUCUCCCUCCUAAGGAGAAGACUGCGGGUUCGAGUCCCGUAUGGGGUG [G6A C66U A69G A70G C71U]", "yeast fitness (ln)": -0.41}
{"sequence_content": "AGUCCGUUGGCGUAAUGGUAACGCGUUUCCCUCCUAAGGAGACGACUGCGGGUUCGAGUCCCGUAUGGAUCG [G1A U2G C27U A43C C66U A70U]", "yeast fitness (ln)": -0.282}
